Here the recorded pIC50 is given for each entry.
Molecular target: Human RSK2 (Homo sapiens (Human), UniProt P51812)
Sequence (P51812 whole entry): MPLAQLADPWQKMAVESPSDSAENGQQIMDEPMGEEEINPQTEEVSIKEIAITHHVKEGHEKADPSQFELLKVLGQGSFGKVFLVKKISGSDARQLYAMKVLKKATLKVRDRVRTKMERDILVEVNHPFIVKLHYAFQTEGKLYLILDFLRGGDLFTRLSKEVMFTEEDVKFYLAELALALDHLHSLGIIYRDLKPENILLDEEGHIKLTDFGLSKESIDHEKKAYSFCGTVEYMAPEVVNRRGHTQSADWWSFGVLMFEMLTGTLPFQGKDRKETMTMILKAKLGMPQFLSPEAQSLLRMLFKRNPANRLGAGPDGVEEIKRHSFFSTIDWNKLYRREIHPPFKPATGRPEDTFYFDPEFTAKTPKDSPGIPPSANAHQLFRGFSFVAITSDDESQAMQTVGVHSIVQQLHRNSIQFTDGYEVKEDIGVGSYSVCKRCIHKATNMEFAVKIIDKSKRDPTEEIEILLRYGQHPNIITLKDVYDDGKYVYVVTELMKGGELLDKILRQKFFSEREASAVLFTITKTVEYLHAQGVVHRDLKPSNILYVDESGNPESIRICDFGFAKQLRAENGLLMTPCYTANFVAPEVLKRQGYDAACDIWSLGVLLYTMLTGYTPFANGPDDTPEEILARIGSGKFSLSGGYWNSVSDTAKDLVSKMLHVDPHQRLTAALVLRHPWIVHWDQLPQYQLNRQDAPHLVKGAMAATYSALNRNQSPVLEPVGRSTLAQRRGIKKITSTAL
pIC50 field: float, defined as -log10 of concentration (mol/L).

[[record]]
compound = "O=C(Nc1cnn(Cc2ccccc2)c1)c1ccc2cc3n(c2c1)CC(F)(F)CNC3=O"
readoutvalue = 7.49

[[record]]
compound = "CN(C)CCCn1c(NC(=O)c2ccc3cc4n(c3c2)C(C)(C)CNC4=O)nc2ccccc21"
readoutvalue = 9.42


I have this compound here, `O=C(Nc1cc(C2CC2)on1)c1ccc2cc3n(c2c1)CCCNC3=O` , and I need its recorded pIC50.
7.59

And the next one, Cc1cc(NC(=O)c2ccc3cc4n(c3c2)[C@@H](C)[C@H](C)NC4=O)no1 (relative stereo) ?
6.80

And the next one, `CN(C)CC(C)(C)Cn1c(NC(=O)c2ccc3cc4n(c3c2)CCCNC4=O)nc2ccccc21` ?
7.52

And the next one, `C[C@H]1CNC(=O)c2cc3ccc(C(=O)Nc4cccnc4)cc3n21` ?
5.64

And the next one, `O=C(Nc1nc2ccccc2o1)c1ccc2cc3n(c2c1)CCCNC3=O` ?
6.43

And the next one, `COc1ccnc(NC(=O)c2ccc3cc4n(c3c2)CCCNC4=O)c1` ?
7.02

And the next one, C[C@H]1CNC(=O)c2cc3ccc(C(=O)Nc4cnn(Cc5ccccc5)c4)cc3n2[C@H]1C (relative stereo) ?
8.03

And the next one, `CC(C)n1ccc(NC(=O)c2ccc3cc4n(c3c2)CCCNC4=O)n1` ?
5.80

====

Target: Human RSK2 (Homo sapiens (Human), UniProt P51812)
pIC50: −log10 of the molar value.
Entry flag: Condition met if pIC50 reaches 9; Condition not met if it does not.

Below, 3 molecules whose answers are already recorded.
[[record]]
structurestring = "CC(C)c1ccc2[nH]c(NC(=O)c3ccc4cc5n(c4c3)CCCNC5=O)nc2c1"
class = "Condition not met"

[[record]]
structurestring = "N#Cc1ccc(NC(=O)c2ccc3cc4n(c3c2)CCCNC4=O)cc1"
class = "Condition not met"

[[record]]
structurestring = "Cc1cc(NC(=O)c2ccc3cc4n(c3c2)[C@H](C)CNC4=O)no1"
class = "Condition not met"


Exam item: decide whether the reported pIC50 for `CCn1c(NC(=O)c2ccc3cc4n(c3c2)C(C)(C)CNC4=O)nc2ccccc21` is at least 9.
Condition met

And the next one, `O=C(Nc1cccc(-c2c[nH]cn2)c1)c1ccc2cc3n(c2c1)CCCNC3=O` ?
Condition not met

====

Target: Human RSK2 (Homo sapiens (Human));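 further: recombinant human RSK2 phosphorylating a substrate peptide, 90 min at 28 °C, leftover ATP read by luminescence, RLU scaled between no-kinase background and uninhibited kinase controls, 4-parameter fit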
Here the recorded log10(IC50) is given for each entry.
Note: values are log10 of IC50 expressed in nM.

Here's what some known entries look like.
[[record]]
structurestring = "Cc1cc(NC(=O)c2ccc3cc4n(c3c2)C(C)(C)CNC4=O)no1"
valuetype = "log10(IC50)"
readoutvalue = 1.56

[[record]]
structurestring = "CC1(c2cc(NC(=O)c3ccc4cc5n(c4c3)CCCNC5=O)on2)CC1"
valuetype = "log10(IC50)"
readoutvalue = 1.43

[[record]]
structurestring = "Cc1cc(NC(=O)c2ccc3cc4n(c3c2)CC2(CCNCC2)CNC4=O)no1"
valuetype = "log10(IC50)"
readoutvalue = 3.80


Hello, I am looking for reported log10(IC50) with Human RSK2 (Homo sapiens (Human)) for `CC(C)n1cc(NC(=O)c2ccc3cc4n(c3c2)CCCNC4=O)cn1` . Could you help?
1.15

And the next one, `Cc1ccccc1Cn1cc(NC(=O)c2ccc3cc4n(c3c2)CCCNC4=O)cn1` ?
0.90
